Answer each item with its documented phosphorylation enrichment.
Target: EPHB1 (UniProt P54762)
Sequence (P54762 whole entry, looked up): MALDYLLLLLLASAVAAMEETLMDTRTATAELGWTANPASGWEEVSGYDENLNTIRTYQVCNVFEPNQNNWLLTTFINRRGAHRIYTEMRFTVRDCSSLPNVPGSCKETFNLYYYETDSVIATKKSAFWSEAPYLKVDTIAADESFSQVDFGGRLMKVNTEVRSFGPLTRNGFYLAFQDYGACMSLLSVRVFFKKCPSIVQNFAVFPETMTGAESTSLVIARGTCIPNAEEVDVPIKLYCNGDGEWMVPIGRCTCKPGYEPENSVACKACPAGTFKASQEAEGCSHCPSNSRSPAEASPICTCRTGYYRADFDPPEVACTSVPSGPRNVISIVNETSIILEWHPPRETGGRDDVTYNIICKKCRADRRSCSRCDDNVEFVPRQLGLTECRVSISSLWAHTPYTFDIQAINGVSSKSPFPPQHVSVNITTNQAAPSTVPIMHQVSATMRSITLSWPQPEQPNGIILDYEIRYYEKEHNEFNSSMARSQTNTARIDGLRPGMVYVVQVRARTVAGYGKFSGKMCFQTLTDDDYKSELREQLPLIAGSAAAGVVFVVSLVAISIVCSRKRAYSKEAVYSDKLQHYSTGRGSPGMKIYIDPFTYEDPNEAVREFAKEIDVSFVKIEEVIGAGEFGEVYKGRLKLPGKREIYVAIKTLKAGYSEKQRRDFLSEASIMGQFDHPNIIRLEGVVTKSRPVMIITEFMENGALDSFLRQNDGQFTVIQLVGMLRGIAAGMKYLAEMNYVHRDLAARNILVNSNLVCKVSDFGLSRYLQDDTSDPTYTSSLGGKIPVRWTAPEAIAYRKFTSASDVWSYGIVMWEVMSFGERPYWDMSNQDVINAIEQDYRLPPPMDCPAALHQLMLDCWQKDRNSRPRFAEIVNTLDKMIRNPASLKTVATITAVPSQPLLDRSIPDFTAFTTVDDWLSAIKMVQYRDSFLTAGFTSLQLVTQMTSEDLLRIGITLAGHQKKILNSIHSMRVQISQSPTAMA
Assay: phosphorylation enrichment, bacterial display (enrichment ratio); higher = better substrate or ligand; peptides without Tyr show the background;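 note: 11-residue human phosphosite peptides and single-mutation variants displayed on the E. coli surface, counted by deep sequencing, each peptide's frequency after selection divided by its frequency in the unselected input library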;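 note: frequency after pTyr selection over input frequency; kinase dosed for 20-30% of maximal phosphorylation in three min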
No unit in the answer, only the number.

**Q:** Using the record for CPSLPYSPVSS [CAMKK2_Y128] , state its measured phosphorylation enrichment.
**A:** 0.491

**Q:** Identify measured phosphorylation enrichment associated with PDDPSYSLVDD [PSTPIP2_Y323_N322S]
**A:** 0.999

**Q:** Give the reported value of phosphorylation enrichment for this record: FHKALYTVRSF [PDE6C_Y266_YF]
**A:** 0.612

**Q:** Answer with the recorded phosphorylation enrichment for the sequence listed here: LAARYYNWVCF [FLT4_Y1231_S1235C]
**A:** 0.899

**Q:** State its phosphorylation enrichment: HLLRIYYDITD [MMP27_Y307_W304L]
**A:** 1.93

**Q:** For the sequence LEISPYMLSGP [LRRK2_Y1718_R1723P] , give its measured phosphorylation enrichment value.
**A:** 0.753

**Q:** Report measured phosphorylation enrichment; entry is KDLPNYNWKSF [KISS1_Y112_N115K]
**A:** 0.532

**Q:** Please give measured phosphorylation enrichment of the following entry: QEALEYFMKQI [PIK3CA_Y1038_M1043I]
**A:** 0.845

**Q:** // fetch phosphorylation enrichment given entry FEEDSYVERSQ [RET_Y905_K907E_YF]
**A:** 0.67

**Q:** Return the recorded phosphorylation enrichment value; entry: LLKKMYLMLDN [STAT1_Y203]
**A:** 0.571

**Q:** Name the recorded phosphorylation enrichment of the sequence listed here: LKLWDYRRGRC [WDR5B_Y239_S240R]
**A:** 0.664

**Q:** Note down phosphorylation enrichment recorded for NLMPAYFKCIQ [CYP21A2_Y190_YF]
**A:** 0.74

**Q:** Output phosphorylation enrichment of TLQTMYGCDVG [HLA-B_Y123_S121T]
**A:** 0.909

**Q:** Determine from records and report phosphorylation enrichment for ALAHKYLGGGG [HBB_Y146_H147L]
**A:** 0.324

**Q:** For TDGNGYISFNE [LCP1_Y28] , write its phosphorylation enrichment.
**A:** 0.476

**Q:** Check the records and state phosphorylation enrichment for RREGVYRNNID [PTEN_Y46_L42R]
**A:** 0.324

**Q:** Give phosphorylation enrichment for the following sequence: VHNLNYYKKTT [FGFR3_Y647_D646N]
**A:** 0.429

**Q:** Using known records, supply phosphorylation enrichment for PQGVGYPPQQQ [EP300_Y2219]
**A:** 0.44

**Q:** Please give measured phosphorylation enrichment of the following entry: EQFELHCEMGS [CBL_Y371_Y371H_YF]
**A:** 0.71

**Q:** Fill in phosphorylation enrichment for record NFADPYRQLQF [CTNND2_Y503_YF]
**A:** 0.494

**Q:** Given the sequence KDHRDYKFQPR [SOX9_Y172_P170R_YF] , write its reported phosphorylation enrichment.
**A:** 0.426

**Q:** Given QGFDTYFGYLL [ARSB_Y165_R160Q] , respond with its phosphorylation enrichment.
**A:** 5.42

**Q:** State its phosphorylation enrichment for this sequence: PHQTIYSALMI [FGF23_Y70]
**A:** 5.93

**Q:** Query phosphorylation enrichment for SILTVYSKDNY [PANK2_Y400_A398T]
**A:** 0.535

**Q:** Return phosphorylation enrichment (reported value) for this sequence: QLAPQYTYTQG [FLNA_Y1761_A1764T]
**A:** 0.436

**Q:** Identify measured phosphorylation enrichment associated with QFNIQYSSSAA [ERBB2IP_Y981_YF]
**A:** 0.51

**Q:** For the sequence VLDSHYPEDEV [C1QBP_Y188_C186S] , give its measured phosphorylation enrichment value.
**A:** 0.611

**Q:** Give phosphorylation enrichment for AGREEYSAMRD [KRAS_Y64_Q61R]
**A:** 0.506

**Q:** Indicate the recorded phosphorylation enrichment value for this sequence: SVQIVYKPVDL [MAPT_Y627]
**A:** 0.698

**Q:** # return recorded phosphorylation enrichment for input PQQLWYTHKKK [UBTF_Y207_E210K]
**A:** 0.774

**Q:** Note phosphorylation enrichment for the sequence shown: QKMLDYLKEKK [RYR2_Y3780]
**A:** 0.401

**Q:** Give the reported value of phosphorylation enrichment for this record: HNQDDYSFPSR [LDLR_Y845_G844D_YF]
**A:** 1.3

**Q:** Tell me its phosphorylation enrichment given HESEIYGKVCY [CSRP3_Y57_C58G] as the entry.
**A:** 0.828

**Q:** Please supply the value of reported phosphorylation enrichment for the item RSFPSYYTSHV [NEFL_Y442]
**A:** 2.37

**Q:** Report measured phosphorylation enrichment; entry is FAASSYSFSDL [EMD_Y59_S54F]
**A:** 0.643

**Q:** Please report phosphorylation enrichment for the following sequence: VHNLDYYKETT [FGFR3_Y647_K650E]
**A:** 0.452

**Q:** Please report the measured phosphorylation enrichment for EDGFAYVPLKD [PRIM2_Y208]
**A:** 0.567

* * *

Target: FGFR1 (UniProt P11362)
Sequence (P11362 whole entry, looked up): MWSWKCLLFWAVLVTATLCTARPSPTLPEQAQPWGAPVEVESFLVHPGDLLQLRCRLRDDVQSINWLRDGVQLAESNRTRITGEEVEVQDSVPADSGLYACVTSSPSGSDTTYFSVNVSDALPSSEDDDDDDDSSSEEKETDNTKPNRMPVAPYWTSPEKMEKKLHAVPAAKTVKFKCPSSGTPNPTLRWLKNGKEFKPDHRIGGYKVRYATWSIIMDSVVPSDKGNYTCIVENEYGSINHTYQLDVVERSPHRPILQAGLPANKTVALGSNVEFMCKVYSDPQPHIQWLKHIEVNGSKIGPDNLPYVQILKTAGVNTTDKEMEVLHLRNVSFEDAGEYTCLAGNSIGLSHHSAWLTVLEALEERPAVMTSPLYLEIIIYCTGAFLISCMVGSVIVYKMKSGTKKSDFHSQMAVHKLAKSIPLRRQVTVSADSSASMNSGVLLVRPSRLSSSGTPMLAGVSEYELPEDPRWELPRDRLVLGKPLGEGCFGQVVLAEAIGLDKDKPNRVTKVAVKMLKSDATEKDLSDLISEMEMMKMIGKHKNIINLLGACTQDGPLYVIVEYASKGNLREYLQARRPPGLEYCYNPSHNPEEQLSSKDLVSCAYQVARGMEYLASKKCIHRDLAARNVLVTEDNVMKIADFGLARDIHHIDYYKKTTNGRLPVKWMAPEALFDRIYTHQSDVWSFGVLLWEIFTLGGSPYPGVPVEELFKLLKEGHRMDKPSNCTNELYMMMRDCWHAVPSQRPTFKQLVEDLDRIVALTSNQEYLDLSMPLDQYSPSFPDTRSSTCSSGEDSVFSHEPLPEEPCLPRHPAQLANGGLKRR
Experiment: phosphorylation enrichment, bacterial display (enrichment ratio); higher = better substrate or ligand; peptides without Tyr show the background
measurement.label: phosphorylation enrichment

**Q:** Report measured phosphorylation enrichment; entry is AQAERYDDMAA [YWHAG_Y20_E15A]
**A:** 0.469

**Q:** Specify reported phosphorylation enrichment for the sequence shown: HLLRIYYDITD [MMP27_Y307_W304L]
**A:** 2.49

**Q:** Provide one value: measured phosphorylation enrichment of LAARYYNWVCF [FLT4_Y1231_S1235C]
**A:** 1.96

**Q:** Indicate the recorded phosphorylation enrichment value for this sequence: IEEGTYGVVFR [CDK11B_Y449_YF]
**A:** 0.548

**Q:** Name the recorded phosphorylation enrichment of the item ARGMEYLASQK [FGFR2_Y616] in your answer.
**A:** 0.443

**Q:** Please give the documented phosphorylation enrichment of AKQVGYENAGT [PC_Y304]
**A:** 0.394

**Q:** Item EPAVLYNLKER [MYH7_Y103_D107E] : provide phosphorylation enrichment
**A:** 0.506

**Q:** Tell me measured phosphorylation enrichment for DKMEAYNIDET [TEKT4_Y210] please.
**A:** 0.56

**Q:** Give the measured phosphorylation enrichment for DEDFLCREELA [POR_Y575_Y575C_YF]
**A:** 0.572

**Q:** Input QEALEYFMKQI [PIK3CA_Y1038_M1043I] , output reported phosphorylation enrichment.
**A:** 0.616

**Q:** Give reported phosphorylation enrichment value for FGISGYLVDSV [MAP2K3_Y214]
**A:** 0.478

**Q:** Specify phosphorylation enrichment for MVIPNYSSRTE [UROC1_Y185] and stop.
**A:** 0.406

**Q:** Specify measured phosphorylation enrichment for PLDGEYFTLPI [TP53_Y327_Q331P] .
**A:** 36.5

**Q:** Look up and report measured phosphorylation enrichment for this entry: MGHVNYGAYIN [GLB1_Y485_R482H]
**A:** 0.384

**Q:** Please look at this sequence and report its phosphorylation enrichment: FRARAYSFRGP [CHGA_Y381_G382S]
**A:** 0.538

**Q:** Answer with reported phosphorylation enrichment of EWQQTYTFDSG [JUP_Y20_YF]
**A:** 0.965

**Q:** Supply measured phosphorylation enrichment of REGKIYEYNQV [ZNF665_Y162_H157R] in your reply.
**A:** 0.707

**Q:** // fetch phosphorylation enrichment given entry LLVVVYKFRCF [PSEN1_Y154_L153V_YF]
**A:** 0.446

**Q:** Return value of phosphorylation enrichment for input SDVCMYRKNIY [SYNE2_Y570] , no commentary.
**A:** 0.502

* * *

Test system: c-Src
Assay: phosphorylation enrichment, bacterial display (enrichment ratio); higher = better substrate or ligand; peptides without Tyr show the background
measurement.label: phosphorylation enrichment
// response body must contain only the number

**Q:** // fetch phosphorylation enrichment for LGSWTYPKTVS [ROS1_Y144_T145P] ; system: c-Src
**A:** 0.415

**Q:** Tell me phosphorylation enrichment of SLALFYRNVYH [RBL1_Y792_K794N] when tested on c-Src.
**A:** 0.381

**Q:** Fill: phosphorylation enrichment (c-Src) for this sequence DFPGNYSGFDD [POLR1C_Y33_YF]
**A:** 0.548
